Listed here are compounds together with their documented MBC.
System: Staphylococcus aureus (ATCC 6538)
protocolNotes: Antibacterial broth microdilution (MIC/MBC), S. aureus
Type: cell-based
runConditions: ATCC6538
Reply numerically in µg/mL, unit not repeated.

Ask | Param item = CNC(C)C1CCC(N)C(OC2C(N)CC(N)C(OC3OCC(C)(O)C(NC)C3O)C2O)O1 (centres unmarked) [Gentamicin, reference compound] ; retrieve measured MBC.
Reply | 0.024

Ask | Param item = CC1(C)S[C@@H]2[C@H](NC(=O)Cc3ccccc3)C(=O)N2[C@H]1C(=O)O [Penicillin G, reference compound] ; retrieve measured MBC.
Reply | 0.003

---

Listed here are compounds together with their documented pIC50.
System: HuCCA-1 (cholangiocarcinoma)
protocolNotes: Cytotoxicity, MTT assay, HuCCA-1
Format: cell-based, human
runConditions: Homo sapiens, HuCC-A1, HuCCA-1 cell line; MTT; mean ± s.d. (n = 3); read-out: IC50, HuCCA-1
Entry type: numeric. Quantity: pIC50, the -log10 of concentration in molar units.

Example compounds with recorded pIC50:
Ask | Param item = C=CC(C)=CCC1(C)C(C)C(OC(C)=O)C(OC(C)=O)C23C(=CC(OC(=O)CC(C)C)CC12)C(OC(C)=O)OC3OC(C)=O (centres unmarked) [Compound 15, Grewiifopene H] ; retrieve measured pIC50.
Reply | 5.18

Ask | Param item = COc1cccc2c1C(=O)c1c(O)c3c(c(O)c1C2=O)C[C@@](O)(C(=O)CO)C[C@@H]3O[C@H]1C[C@H](N)[C@H](O)[C@H](C)O1 [Doxorubicin, reference compound] ; retrieve measured pIC50.
Reply | 6.08

Ask | Param item = C=CC(=C)CC[C@]1(C)[C@H](C)[C@@H](OC(=O)/C=C/c2ccc(O)cc2)[C@H](O)[C@@]23C(=C[C@H](OC(=O)CC(C)C)C[C@@H]12)[C@H](OC(C)=O)O[C@H]3OC(C)=O [Compound 14, Grewiifopene G] ; retrieve measured pIC50.
Reply | 5.74

Ask | Param item = C=CC(=C)CC[C@]1(C)[C@H](C)[C@@H](OC(=O)CC(C)C)[C@H](O)[C@@]23C(=C[C@H](OC(=O)CC(C)C)C[C@@H]12)[C@@H](OC(C)=O)O[C@H]3OC(C)=O [Compound 12, Grewiifopene E] ; retrieve measured pIC50.
Reply | 5.36

// below: pIC50 requested for another compound
Ask | Param item = C=CC(=C)CC[C@]1(C)[C@H](C)C[C@H](OC)[C@@]23C(=C[C@H](OC(=O)C(C)C)C[C@@H]12)[C@@H](OC(C)=O)O[C@H]3OC(C)=O [Compound 6, corymbulosin K] ; retrieve measured pIC50.
Reply | 5.25

---

Tested on: HuCCA-1 (cholangiocarcinoma)
protocolNotes: Cytotoxicity, MTT assay, HuCCA-1
Format: cell-based, human
runConditions: Homo sapiens, HuCC-A1, HuCCA-1 cell line; MTT; mean ± s.d. (n = 3); read-out: IC50, HuCCA-1
Description: The in vitro cytotoxicity assay toward a panel of human cancer cell lines of several clerodane diterpenoids has been well investigated. Thus, the isolates in adequate amounts were tested against MOLT-3 (acute lymphoblastic leukemia), HuCCA-1 (cholangiocarcinoma), HepG2 (hepatocellular carcinoma), A549 (lung adenocarcinoma), HeLa (cervical carcinoma), and MDA-MB-231 (triple negative breast cancer) cancer cell lines using the MTT and XTT methods. […]
Okay, here is how we bin by IC50: lower level (below 4 µM), middle level (4 µM to below 8 µM), upper level (8 µM or more)

Worked cases, answers included:
Ask | State the class of the compound shown: C=CC(=C)CC[C@]1(C)[C@H](C)[C@@H](OC(C)=O)[C@H](OC)[C@@]23C(=C[C@H](OC(=O)CC(C)C)C[C@@H]12)[C@@H](OC(C)=O)O[C@H]3OC(C)=O [Compound 2, Grewiifopene B]
Reply | upper level

Ask | State the class of the compound shown: C=CC(=C)CC[C@]1(C)[C@H]2C[C@H](OC(=O)CC(C)C)C=C3[C@H](OC(C)=O)O[C@H](OC(C)=O)[C@@]32[C@H](OC)C[C@@H]1C [Compound 9, caseargrewiin A]
Reply | middle level

Ask | State the class of the compound shown: C=CC(=C)CC[C@]1(C)[C@H](C)C[C@H](OC)[C@@]23C(=C[C@H](OC(=O)CC(C)C)C[C@@H]12)[C@@H](OC)O[C@H]3OC(C)=O [Compound 10, kurzipene A]
Reply | middle level

Others:
Ask | State the class of the compound shown: C=CC(=C)CCC1(C)C(C)C(OC(=O)C=Cc2ccc(O)cc2)C(O)C23C(=CC(OC(=O)CC(C)C)CC12)C(OC)OC3OC(C)=O (stereo not shown) [Compound 13, Grewiifopene F]
Reply | upper level

Ask | State the class of the compound shown: C=CC(=C)CC[C@]1(C)[C@H](C)C[C@H](OC)[C@@]23C(=C[C@H](OC(=O)[C@@H](C)CC)C[C@@H]12)[C@@H](OC)O[C@H]3OC(C)=O [Compound 11, balanspene F]
Reply | lower level

Ask | State the class of the compound shown: C=CC(=C)CC[C@]1(C)[C@H](C)C[C@H](O)[C@@]23C(=C[C@H](OC(=O)[C@@H](C)CC)C[C@@H]12)[C@@H](OC(C)=O)O[C@H]3OC(C)=O [Compound 7, isocaseamembrin E]
Reply | lower level

Ask | State the class of the compound shown: COC1=CC(=O)C=C(OC)C1(O)CC(C)=O [Compound 20, 4-acetonyl-3,5-dimethoxy-p-quinol]
Reply | upper level

Ask | State the class of the compound shown: C=CC(=C)CC[C@]1(C)[C@H](C)C[C@H](OC)[C@@]23C(=C[C@H](OC(=O)[C@@H](C)CC)C[C@@H]12)[C@@H](OC(C)=O)O[C@H]3OC(C)=O [Compound 5, corymbulosin N]
Reply | middle level

Ask | State the class of the compound shown: C=CC(=C)CC[C@]1(C)[C@H](C)C[C@H](O)[C@@]23C(=C[C@H](OC(=O)CC(C)C)C[C@@H]12)[C@@H](OC(C)=O)O[C@H]3OC(C)=O [Compound 8, corymbulosin X]
Reply | lower level
